target: AR protein (Homo sapiens); construct: endogenous in cells; host or cells: VCaP; assay: Western blotting of AR protein degradation in VCaP cells; format: cell-based; conditions: 1 μM
% AR protein degradation in VCaP Cells of 80% or higher: label 1. Under 80%: label 0.

Q. Hi, just wondering whether N#Cc1ccc(O[C@H]2CC[C@H](NC(=O)c3ccc(NCCCCCCCCCCNc4ccc5c(c4)C(=O)N(C4CCC(=O)NC4=O)C5=O)cc3)CC2)cc1Cl (some centres unmarked) shows % AR protein degradation in VCaP Cells of 80% or higher.
A. label 0

Q. Hi, just wondering whether CN(c1ccc(C#N)c(Cl)c1)[C@H]1CC[C@H](NC(=O)c2ccc(N3CCC(CN4CCN(c5ccc6c(c5)C(=O)N(C5CCC(=O)NC5=O)C6=O)CC4)CC3)cc2)CC1 (some centres unmarked) shows % AR protein degradation in VCaP Cells of 80% or higher.
A. label 1

Q. Hi, just wondering whether N#Cc1ccc(O[C@H]2CC[C@H](NC(=O)c3ccc(N4CCN(C5CN(c6ccc7c(c6)C(=O)N(C6CCC(=O)NC6=O)C7=O)C5)CC4)cc3)CC2)cc1Cl (some centres unmarked) shows % AR protein degradation in VCaP Cells of 80% or higher.
A. label 0

====

test: PK parameters in male mice (Table 9); format: in vivo; details: ICR, mouse, in vivo, PO 5 mg/kg, read-out: AUC(0-t)
measured.parameter: AUC(0-t) (ng·h/mL)
Value expressed in ng·h/mL; do not type the unit.

Q. Need AUC(0-t), item N#Cc1ccc(O[C@H]2CC[C@H](NC(=O)c3ccc(N4CCN(C5CN(c6ccc7c(c6)C(=O)N(C6CCC(=O)NC6=O)C7=O)C5)CC4)cc3)CC2)cc1Cl (stereo partly shown)
A. 13100

====

I'd be grateful if you could share measured % AR protein degradation in VCaP Cells for these entries.
Target: AR protein (Homo sapiens, UniProt P10275)
Construct: endogenous in cells; host or cells: VCaP
Sequence (P10275 whole entry): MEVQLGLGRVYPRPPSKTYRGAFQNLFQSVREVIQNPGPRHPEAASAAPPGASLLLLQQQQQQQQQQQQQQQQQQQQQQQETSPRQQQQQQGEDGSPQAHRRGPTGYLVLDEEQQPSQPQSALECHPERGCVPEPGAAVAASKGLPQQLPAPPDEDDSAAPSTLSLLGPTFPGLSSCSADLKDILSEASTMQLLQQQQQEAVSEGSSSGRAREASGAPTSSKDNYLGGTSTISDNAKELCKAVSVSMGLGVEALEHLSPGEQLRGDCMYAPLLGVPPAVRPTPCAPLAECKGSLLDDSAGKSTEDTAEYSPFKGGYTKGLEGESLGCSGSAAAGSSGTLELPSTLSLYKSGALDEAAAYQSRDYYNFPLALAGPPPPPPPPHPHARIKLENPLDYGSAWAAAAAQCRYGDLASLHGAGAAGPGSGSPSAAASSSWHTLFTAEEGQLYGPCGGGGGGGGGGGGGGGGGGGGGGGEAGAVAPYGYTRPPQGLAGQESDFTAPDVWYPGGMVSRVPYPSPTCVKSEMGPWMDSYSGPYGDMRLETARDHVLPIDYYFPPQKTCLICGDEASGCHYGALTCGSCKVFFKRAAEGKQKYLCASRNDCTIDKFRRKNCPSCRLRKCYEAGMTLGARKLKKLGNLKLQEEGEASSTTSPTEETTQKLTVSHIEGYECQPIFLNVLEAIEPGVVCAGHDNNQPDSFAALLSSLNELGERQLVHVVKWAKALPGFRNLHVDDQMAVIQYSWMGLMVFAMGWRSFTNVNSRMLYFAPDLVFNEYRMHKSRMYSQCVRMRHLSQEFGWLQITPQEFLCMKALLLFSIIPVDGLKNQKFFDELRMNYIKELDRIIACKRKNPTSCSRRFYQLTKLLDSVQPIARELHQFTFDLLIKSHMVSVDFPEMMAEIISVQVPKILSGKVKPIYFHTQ
Assay: Western blotting of AR protein degradation in VCaP cells
Format: cell-based
Conditions: 0.01 μM
Procedure: The treated cells were lysed with RIPA buffer. […] GAPDH was used as a loading control. Bands were quantified with ImageJ software. The relative numbers of each band obtained from normalization with its corresponding GAPDH level were compared with Prism 8 software. The DC50 values were produced from Prism 8, and the DC90 values were calculated with an equation=Bottom+(Top−Bottom)/(1+10^((Log EC50−X)*HillSlope) based on DC50 and Hillslope values.
Value expressed in %; do not type the unit.

Q. Need % AR protein degradation in VCaP Cells, item N#Cc1ccc(O[C@@H]2CCC[C@@H](NC(=O)c3ccc(N4CCC(N5CCN(c6ccc7c(c6)C(=O)N(C6CCC(=O)NC6=O)C7=O)CC5)CC4)cc3)CC2)cc1Cl (stereo partly shown)
A. 36

Q. Need % AR protein degradation in VCaP Cells, item CN(c1ccc(C#N)c(Cl)c1)[C@H]1CC[C@H](NC(=O)c2ccc(N3CC(N4CCN(c5ccc6c(c5)C(=O)N(C5CCC(=O)NC5=O)C6=O)CC4)C3)cc2)CC1 (stereo partly shown)
A. 87

Q. Need % AR protein degradation in VCaP Cells, item N#Cc1ccc(O[C@H]2CC[C@H](NC(=O)c3ccc(N4CCC(N5CCN(c6ccc7c(c6)C(=O)N(C6CCC(=O)NC6=O)C7=O)CC5)CC4)cc3)C2)cc1Cl (stereo partly shown)
A. 3

Q. Need % AR protein degradation in VCaP Cells, item N#Cc1ccc(O[C@H]2CC[C@H](NC(=O)c3ccc(N4CCN(CCCNc5ccc6c(c5)C(=O)N(C5CCC(=O)NC5=O)C6=O)CC4)cc3)CC2)cc1Cl (stereo partly shown)
A. 69

Q. Need % AR protein degradation in VCaP Cells, item N#Cc1ccc(O[C@H]2CC[C@H](NC(=O)c3ccc(N4CCN(C5CN(c6ccc7c(c6)C(=O)N(C6CCC(=O)NC6=O)C7=O)C5)CC4)cc3)CC2)cc1Cl (stereo partly shown)
A. 48

Q. Need % AR protein degradation in VCaP Cells, item N#Cc1ccc(O[C@H]2CC[C@H](NC(=O)c3ccc(N4CCN(CCCCCNc5ccc6c(c5)C(=O)N(C5CCC(=O)NC5=O)C6=O)CC4)cc3)CC2)cc1Cl (stereo partly shown)
A. 22

Q. Need % AR protein degradation in VCaP Cells, item CN(c1ccc(C#N)c(Cl)c1)[C@H]1CC[C@H](NC(=O)c2ccc(N3CCN(C4CN(c5ccc6c(c5)C(=O)N(C5CCC(=O)NC5=O)C6=O)C4)CC3)cc2)CC1 (stereo partly shown)
A. 90

====

I'd be grateful if you could share measured Cl for these entries.
assay: PK parameters in male mice (Table 9); format: in vivo; details: IV 1 mg/kg
Value expressed in L/h/kg; do not type the unit.

Q. Need Cl, item CN(c1ccc(C#N)c(Cl)c1)[C@H]1CC[C@H](NC(=O)c2ccc(N3CCN(CC4CN(c5ccc6c(c5)C(=O)N(C5CCC(=O)NC5=O)C6=O)C4)CC3)cc2)CC1 (stereo partly shown)
A. 0.82

Q. Need Cl, item CN(c1ccc(C#N)c(Cl)c1)[C@H]1CC[C@H](NC(=O)c2ccc(N3CC(CN4CCN(c5ccc6c(c5)C(=O)N(C5CCC(=O)NC5=O)C6=O)CC4)C3)cc2)CC1 (stereo partly shown)
A. 0.79

Q. Need Cl, item CN(c1ccc(C#N)c(Cl)c1)[C@H]1CC[C@H](NC(=O)c2ccc(N3CCN(C4CCN(c5ccc6c(c5)C(=O)N(C5CCC(=O)NC5=O)C6=O)CC4)CC3)cc2)CC1 (stereo partly shown)
A. 0.27

Q. Need Cl, item CN(c1ccc(C#N)c(Cl)c1)[C@H]1CC[C@H](NC(=O)c2ccc(N3CCC(CN4CCN(c5ccc6c(c5)C(=O)N(C5CCC(=O)NC5=O)C6=O)CC4)CC3)cc2)CC1 (stereo partly shown)
A. 1.1

====

I'd be grateful if you could share measured % AR protein degradation in VCaP Cells for these entries.
target: AR protein (Homo sapiens, UniProt P10275); construct: endogenous in cells; host or cells: VCaP; assay: Western blotting of AR protein degradation in VCaP cells; assay type: cell-based; conditions: 0.1 μM

Q. Need % AR protein degradation in VCaP Cells, item N#Cc1ccc(O[C@H]2CC[C@H](NC(=O)c3ccc(N4CCN(CCCCCNc5ccc6c(c5)C(=O)N(C5CCC(=O)NC5=O)C6=O)CC4)cc3)CC2)cc1Cl (some centres unmarked) [compound 221]
A. 51%

Q. Need % AR protein degradation in VCaP Cells, item N#Cc1ccc(O[C@H]2CC[C@H](NC(=O)c3ccc(N4CCC(N5CCN(c6ccc7c(c6)C(=O)N(C6CCC(=O)NC6=O)C7=O)CC5)CC4)cc3)CC2)cc1Cl (some centres unmarked) [compound 223]
A. 85%

Q. Need % AR protein degradation in VCaP Cells, item N#Cc1ccc(O[C@H]2CC[C@H](NC(=O)c3ccc(NCCCCCNc4ccc5c(c4)C(=O)N(C4CCC(=O)NC4=O)C5=O)cc3)CC2)cc1Cl (some centres unmarked) [compound 211]
A. 82%

Q. Need % AR protein degradation in VCaP Cells, item CN(c1ccc(C#N)c(Cl)c1)[C@H]1CC[C@H](NC(=O)c2ccc(N3CC(CN4CCN(c5ccc6c(c5)C(=O)N(C5CCC(=O)NC5=O)C6=O)CC4)C3)cc2)CC1 (some centres unmarked) [compound 239]
A. 95%

Q. Need % AR protein degradation in VCaP Cells, item N#Cc1ccc(O[C@H]2CC[C@H](NC(=O)c3ccc(N4CCN(C5CCN(c6ccc7c(c6)C(=O)N(C6CCC(=O)NC6=O)C7=O)CC5)CC4)cc3)CC2)cc1Cl (some centres unmarked) [compound 222]
A. 60%

Q. Need % AR protein degradation in VCaP Cells, item N#Cc1ccc(O[C@H]2CC[C@H](NC(=O)c3ccc(N4CCN(CCCNc5ccc6c(c5)C(=O)N(C5CCC(=O)NC5=O)C6=O)CC4)cc3)CC2)cc1Cl (some centres unmarked) [compound 219]
A. 80%

Q. Need % AR protein degradation in VCaP Cells, item CC1(C)C(=O)N(c2ccc(C#N)c(C(F)(F)F)c2)C(=S)N1c1ccc(C(=O)N2CCN(C3CCN(c4ccc5c(c4)C(=O)N(C4CCC(=O)NC4=O)C5=O)CC3)CC2)c(F)c1 (centres unmarked) [compound 242]
A. 18%

Q. Need % AR protein degradation in VCaP Cells, item N#Cc1ccc(O[C@H]2CCC[C@H](NC(=O)c3ccc(N4CCC(N5CCN(c6ccc7c(c6)C(=O)N(C6CCC(=O)NC6=O)C7=O)CC5)CC4)cc3)CCC2)cc1Cl (some centres unmarked) [compound 228]
A. 51%

Q. Need % AR protein degradation in VCaP Cells, item N#Cc1ccc(O[C@H]2CC[C@H](NC(=O)c3ccc(N4CCN(C5CN(c6ccc7c(c6)C(=O)N(C6CCC(=O)NC6=O)C7=O)C5)CC4)cc3)CC2)cc1Cl (some centres unmarked) [compound 225]
A. 15%

Q. Need % AR protein degradation in VCaP Cells, item N#Cc1ccc(O[C@@H]2CCC[C@@H](NC(=O)c3ccc(N4CCC(N5CCN(c6ccc7c(c6)C(=O)N(C6CCC(=O)NC6=O)C7=O)CC5)CC4)cc3)CC2)cc1Cl (some centres unmarked) [compound 227]
A. 34%

Q. Need % AR protein degradation in VCaP Cells, item N#Cc1ccc(N[C@H]2CC[C@H](NC(=O)c3ccc(N4CCC(N5CCN(c6ccc7c(c6)C(=O)N(C6CCC(=O)NC6=O)C7=O)CC5)CC4)cc3)CC2)cc1Cl (some centres unmarked) [compound 229]
A. 52%
